± gives the standard deviation of the reports.
Reported glass transition temperature by item:

Known glass transition temperature results, listed for orientation:
# Molecule, Result
data = [
    ("*O[Si](C)(C)O[Si](C)(C)O[SiH](*)O[Si](C)(C)C=C (repeat unit)", "-68.00 °C"),
    ("*=Nc1ccc(Cc2ccc(NC(=*)CCC)cc2)cc1 (repeat unit)", "110.00 °C"),
    ("*Oc1ccc(C2(c3ccc(Oc4ccc(C(=O)c5cccc(C(=O)c6ccc(*)cc6)c5)cc4)cc3)c3ccccc3-c3ccccc32)cc1 (repeat unit)", "223.00 °C"),
    ("*C(=O)c1ccc2c(c1)C(=O)N(c1cccc(Cc3cccc(N4C(=O)c5ccc(*)cc5C4=O)c3)c1)C2=O (repeat unit)", "249.50 ± 20 °C"),
    ("*c1ccc(Nc2cccc(Nc3ccc(S(*)(=O)=O)cc3)c2)cc1 (repeat unit)", "145.00 °C"),
    ("*c1c(C)cc(-c2cc(C)c(N3C(=O)c4cccc(Oc5c(C)cc(Cc6cc(C)c(Oc7cccc8c7C(=O)N(*)C8=O)c(C)c6)cc5C)c4C3=O)c(C)c2)cc1C (repeat unit)", "276.00 °C"),
]

Given the molecule *CCCCOC(=O)c1ccc(C(C)(C)c2ccc(C(=O)O*)cc2)cc1 (repeat unit) , what is its reported glass transition temperature?
44.00 °C

And for *CC(*)c1cc(OC)c(O)c(OC)c1 (repeat unit) ?
147.00 °C

Please do the same for *CC(*)CCC (repeat unit) [Poly(propylethylene)] as well.
-35 ± 46 °C

====

Use glass transition temperature to assign classes; range list: class 0 (below 80 °C), class 1 (80 °C to below 200 °C), class 2 (200 °C or more)

# classify by glass transition temperature band: *OC(F)(C(*)(F)F)C(F)(F)F (repeat unit)
class 0

Then this molecule: *CC(*)C(=O)OCCCCCCCCn1c2ccccc2c2ccccc21 (repeat unit)
class 0

Then *C1C2CCC(C2)C1S(*)(=O)=O (repeat unit) ?
class 0

Same question, *CCCCCCOc1c(OC)cc(/C=C2\CCC/C(=C\c3cc(OC)c(O*)c(OC)c3)C2=O)cc1OC (repeat unit) this time
class 0

What do we get for */C=C/c1ccc(N(CC)Cc2ccccc2CN(CC)c2ccc(/C=C/c3ccc(/C=C(\C#N)S(=O)(=O)/C(C#N)=C/c4ccc(*)s4)s3)cc2)cc1 (repeat unit) ?
class 1

====

Catalogue of glass transition temperature readings, one per entry.
Your answer should be a number followed by the unit of measure.

// worked examples, glass transition temperature included
# Molecule, glass transition temperature
rows = [
    ("*c1cccc(N2C(=O)c3ccc(Oc4c(C)cc(Cc5cc(C)c(Oc6ccc7c(c6)C(=O)N(*)C7=O)c(C)c5)cc4C)cc3C2=O)c1 (repeat unit)", "245.00 °C"),
    ("*c1ccc(Oc2ccc(-c3cc(-c4ccccc4)c4cc(C5(c6ccc7nc(*)cc(-c8ccccc8)c7c6)c6ccccc6-c6ccccc65)ccc4n3)cc2)cc1 (repeat unit)", "315.00 °C"),
    ("*CC(*)(C)C(=O)OCCCCCCCCCCCOc1ccc(/C=N/c2ccc(C#N)cc2)cc1 (repeat unit)", "23.00 °C"),
]

What value of glass transition temperature has been recorded for this entry: *CC(*)(CCC)C(=O)OC (repeat unit)
83.50 °C

====

glass transition temperature values, listed per item
Your answer is read as °C, so omit the unit and give the number.

Report glass transition temperature for *CCCCCCOC(=O)NNC(=O)CCCCCCCCC(=O)NNC(=O)O* (repeat unit) please.
45.00

Thanks! And *c1ccc(C(C)(C)c2ccc(N3C(=O)c4ccc(Oc5ccc6ccc(Oc7ccc8c(c7)C(=O)N(*)C8=O)cc6c5)cc4C3=O)cc2)cc1 (repeat unit) ?
247.00

Try the molecule *CCCCCCCCCCOc1ccc(-c2cc(-c3ccc(-c4ccccc4)cc3)c(-c3ccc(NC(=O)c4ccc(C(=O)Nc5ccc(-c6c(-c7ccc(-c8ccccc8)cc7)cc(-c7ccc(O*)cc7)cc6-c6ccc(-c7ccccc7)cc6)cc5)cc4)cc3)c(-c3ccc(-c4ccccc4)cc3)c2)cc1 (repeat unit)
111.00

Now this one: *Oc1ccc(C(C)(C)c2ccc(Oc3ccc(C(=O)c4cccc5cccc(C(=O)c6ccc(*)cc6)c45)cc3)cc2)cc1 (repeat unit)
210.50

What do you have for *c1ccc2c(c1)C(=O)N(c1cc(OCCN(CC)c3ccc(/N=N/c4ccc([N+](=O)[O-])cc4)cc3)cc(N3C(=O)c4ccc(C(*)(C(F)(F)F)C(F)(F)F)cc4C3=O)c1)C2=O (repeat unit) ?
210.00

Could you do the same for *Oc1cccc(Oc2ccc(C(=O)O)c(C(=O)Nc3ccc(Oc4ccc(-c5ccc(Oc6ccc(NC(=O)c7cc(*)ccc7C(=O)O)cc6)cc5)cc4)cc3)c2)c1 (repeat unit) , please?
100.00

Same read-out for *CCN(CCOC(=O)Nc1ccc(Cc2ccc(NC(=O)O*)cc2)cc1)c1ccccc1 (repeat unit) ?
31.90

// same read-out, input: *CC(c1ccccc1)C1C(=O)NC(=O)C1* (repeat unit)
246.00

# repeat for */C=C(\C#N)c1cccc(/C(C#N)=C/c2ccc(/C=C/c3ccc(N(CC)Cc4ccccc4CN(CC)c4ccc(/C=C/c5ccc(*)s5)cc4)cc3)s2)c1 (repeat unit)
178.00

====

± gives the standard deviation of the reports.
Observation type: glass transition temperature

Take a look at these entries with their results.
# Compound, glass transition temperature
measured = [
    ("*Oc1ccc(C2(c3ccc(OC(=O)OC4C(C)(C)C(OC(*)=O)C4(C)C)cc3)CCC(C(C)(C)C)CC2)cc1 (repeat unit)", "172.00 °C"),
    ("*CC(CBr)O* (repeat unit)", "-14.00 °C"),
    ("*CCCCOc1ccc(C(=O)OCCOC(=O)c2ccc(O*)cc2)cc1 (repeat unit)", "53.00 °C"),
    ("*CCCCCCOc1ccc(-c2ccc(O*)c3ccccc23)c2ccccc12 (repeat unit)", "109.00 °C"),
    ("*Oc1ccc(OC(=O)c2cc(OCCCCCOCC3CCCN3c3ccc([N+](=O)[O-])cc3)c(C(*)=O)cc2OCCCCCOCC2CCCN2c2ccc([N+](=O)[O-])cc2)cc1 (repeat unit)", "63.00 °C"),
    ("*CCCCCCCNC(=O)N* (repeat unit)", "62.00 °C"),
    ("*Oc1ccc(CC(NC(=O)CCc2ccc(OC(=O)COCC(*)=O)cc2)C(=O)OCCCCCCCCCCCC)cc1 (repeat unit)", "36.00 °C"),
]

Read the next record carefully.
Returns the measured glass transition temperature for the input compound. Input: *CC(*)(C#N)C(=O)OCCCCCC (repeat unit) [Poly(hexyl cyanoacrylate)]
85.92 ± 0.1 °C

====

Threshold 200 °C: glass transition temperature strictly smaller gives fulfilled, otherwise not fulfilled.

Study these solved cases before continuing.
# Compound, Group
records = [
    ("*c1c(C)cc(Cc2cc(C)c(N3C(=O)c4cccc(Oc5c(C)cc(Cc6cc(C)c(Oc7cccc8c7C(=O)N(*)C8=O)c(C)c6)cc5C)c4C3=O)c(C)c2)cc1C (repeat unit)", "not fulfilled"),
    ("*Oc1ccc(OC(=O)c2ccc(Sc3cccc(OC(=O)c4ccc(C(=O)Oc5cccc(Sc6ccc(C(*)=O)cc6)c5)cc4)c3)cc2)cc1C (repeat unit)", "fulfilled"),
    ("*C/C=C/N(/C=C/CC1CC(=O)N(c2ccc(Cc3ccc(N4C(=O)CC(*)C4=O)cc3)cc2)C1=O)c1ccc(/N=N/c2ccc([N+](=O)[O-])cc2)cc1 (repeat unit)", "not fulfilled"),
]

# check: glass transition temperature < 200 °C for *CCCCCOC(=O)c1ccccc1C(=O)[O][Pb][O]C(=O)c1ccccc1C(=O)OCCCCCOC(=O)Nc1ccc(C)c(NC(=O)O*)c1 (repeat unit)
fulfilled

Another compound: *c1ccc(Oc2cccc(N3C(=O)c4ccc(Oc5cc6ccccc6cc5Oc5ccc6c(c5)C(=O)N(*)C6=O)cc4C3=O)c2)cc1 (repeat unit)
not fulfilled

Another compound: *O[Si](C)(C)COC(=O)CCCCCCCCC(=O)Oc1ccc(S(=O)(=O)c2ccc(Oc3ccc(/C=C4\CCC/C(=C\c5ccc(Oc6ccc(S(=O)(=O)c7ccc(OC(=O)CCCCCCCCC(=O)OC[Si](*)(C)C)cc7)cc6)cc5)C4=O)cc3)cc2)cc1 (repeat unit)
fulfilled

Also, *c1ccc2c(c1)C(=O)N(c1ccc(N3C(=O)c4ccc(C(*)(C(F)(F)F)C(F)(F)F)cc4C3=O)cc1)C2=O (repeat unit) please.
not fulfilled

Try this compound too: */C=C/c1cc(OCCCCCCCCC)c(/C=C/c2ccc(*)cc2)cc1OCCCCCCCCC (repeat unit)
fulfilled

Lookup *CCCOCCCCOCCCN1C(=O)c2ccc(C(=O)Oc3ccc(C(C)(C)c4ccc(OC(=O)c5ccc6c(c5)C(=O)N(*)C6=O)cc4)cc3)cc2C1=O (repeat unit)
fulfilled

Do the same for *Oc1ccc(CC(NC(=O)CCc2ccc(OC(=O)CCCCC(*)=O)cc2)C(=O)OCC(C)C)cc1 (repeat unit) please
fulfilled

What do you have for *C(=O)c1ccc2c(c1)C(=O)N(c1ccc(C3(C)CC(C)(C)c4ccc(N5C(=O)c6ccc(*)cc6C5=O)cc43)cc1)C2=O (repeat unit) ?
not fulfilled

Here is the next compound: *Oc1ccc(C(C)(C)c2ccc(OC(=O)SCCCSC(*)=O)cc2)cc1 (repeat unit)
fulfilled

Reference source: the PolyMetriX glass transition set
